System: L1210, CEM and HeLa cell lines
Experiment: Cytostatic activity, average or summary over L1210, CEM and HeLa
Format: cell-based
Conditions: average of L1210, CEM and HeLa; read-out: Toxicity (IC50) Average
measured_metric: IC50 (µM)

molecule=CN[C@H](CC(C)C)C(=O)N[C@H]1C(=O)N[C@@H](CC(N)=O)C(=O)N[C@H]2C(=O)N[C@H]3C(=O)N[C@H](C(=O)N[C@H](C(=O)NCC(=O)Nc4ccc(C)cc4)c4cc(O)cc(O)c4-c4cc3ccc4O)[C@H](O)c3ccc(c(Cl)c3)Oc3cc2cc(c3O[C@@H]2O[C@H](CO)[C@@H](O)[C@H](O)[C@H]2O[C@H]2C[C@](C)(N)[C@H](O)[C@H](C)O2)Oc2ccc(cc2Cl)[C@H]1O relation_symbol=> assay_result=250
molecule="CNC(CC(C)C)C(=O)NC1C(=O)NC(CC(N)=O)C(=O)NC2C(=O)NC3C(=O)NC(C(=O)NC(C(=O)NCCCNC(=O)c4ccc(C(F)(F)F)cc4)c4cc(O)cc(O)c4-c4cc3ccc4O)C(O)c3ccc(c(Cl)c3)Oc3cc2cc(c3OC2OC(CO)C(O)C(O)C2OC2CC(C)(N)C(O)C(C)O2)Oc2ccc(cc2Cl)C1O (centres unmarked)" relation_symbol== assay_result=157

* * *

Here the recorded IC50 is given for each entry.
Test system: Murine leukemia (L1210) cells
Assay: Cytostatic activity, L1210 cell proliferation
Assay type: cell-based
Conditions: mean ± SD of three experiments; highest concentration tested 250 µM; 2 days; read-out: Toxicity (IC50) L1210
measured_metric: IC50

compound=CN[C@H](CC(C)C)C(=O)N[C@H]1C(=O)N[C@@H](CC(N)=O)C(=O)N[C@H]2C(=O)N[C@H]3C(=O)N[C@H](C(=O)N[C@H](C(=O)NCC(=O)Nc4ccc(Cl)cn4)c4cc(O)cc(O)c4-c4cc3ccc4O)[C@H](O)c3ccc(c(Cl)c3)Oc3cc2cc(c3O[C@@H]2O[C@H](CO)[C@@H](O)[C@H](O)[C@H]2O[C@H]2C[C@](C)(N)[C@H](O)[C@H](C)O2)Oc2ccc(cc2Cl)[C@H]1O system_name="Murine leukemia (L1210) cells" measured_metric=IC50 assay_result="≥ 250 µM"
compound="CNC(CC(C)C)C(=O)NC1C(=O)NC(CC(N)=O)C(=O)NC2C(=O)NC3C(=O)NC(C(=O)NC(C(=O)NCCNC(=O)C4c5ccccc5-c5ccccc54)c4cc(O)cc(O)c4-c4cc3ccc4O)C(O)c3ccc(c(Cl)c3)Oc3cc2cc(c3OC2OC(CO)C(O)C(O)C2OC2CC(C)(N)C(O)C(C)O2)Oc2ccc(cc2Cl)C1O (stereo not drawn)" system_name="Murine leukemia (L1210) cells" measured_metric=IC50 assay_result="197 µM"
compound=CN[C@H](CC(C)C)C(=O)N[C@H]1C(=O)N[C@@H](CC(N)=O)C(=O)N[C@H]2C(=O)N[C@H]3C(=O)N[C@H](C(=O)N[C@H](C(=O)NCCNC(=O)/C=C/c4ccc(NS(=O)(=O)c5ccccc5)cc4)c4cc(O)cc(O)c4-c4cc3ccc4O)[C@H](O)c3ccc(c(Cl)c3)Oc3cc2cc(c3O[C@@H]2O[C@H](CO)[C@@H](O)[C@H](O)[C@H]2O[C@H]2C[C@](C)(N)[C@H](O)[C@H](C)O2)Oc2ccc(cc2Cl)[C@H]1O system_name="Murine leukemia (L1210) cells" measured_metric=IC50 assay_result="> 250 µM"

* * *

Test system: L1210, CEM and HeLa cell lines
Assay: Cytostatic activity, average or summary over L1210, CEM and HeLa
Assay type: cell-based
Details: average of L1210, CEM and HeLa; read-out: Toxicity (IC50) Average
pIC50: −log10 of the molar value.
Here the recorded pIC50 is given for each entry.
measured_metric: pIC50

compound=CN[C@H](CC(C)C)C(=O)N[C@H]1C(=O)N[C@@H](CC(N)=O)C(=O)N[C@H]2C(=O)N[C@H]3C(=O)N[C@H](C(=O)N[C@H](C(=O)NCC(=O)Nc4cc(C)ccc4O)c4cc(O)cc(O)c4-c4cc3ccc4O)[C@H](O)c3ccc(c(Cl)c3)Oc3cc2cc(c3O[C@@H]2O[C@H](CO)[C@@H](O)[C@H](O)[C@H]2O[C@H]2C[C@](C)(N)[C@H](O)[C@H](C)O2)Oc2ccc(cc2Cl)[C@H]1O assay_result="< 3.60"
compound="CNC(CC(C)C)C(=O)NC1C(=O)NC(CC(N)=O)C(=O)NC2C(=O)NC3C(=O)NC(C(=O)NC(C(=O)NCCNC(=O)C=Cc4ccccc4)c4cc(O)cc(O)c4-c4cc3ccc4O)C(O)c3ccc(c(Cl)c3)Oc3cc2cc(c3OC2OC(CO)C(O)C(O)C2OC2CC(C)(N)C(O)C(C)O2)Oc2ccc(cc2Cl)C1O (stereo not drawn)" assay_result="< 3.60"
compound="CNC(CC(C)C)C(=O)NC1C(=O)NC(CC(N)=O)C(=O)NC2C(=O)NC3C(=O)NC(C(=O)NC(C(=O)NCC(=O)NC4c5ccccc5-c5ccccc54)c4cc(O)cc(O)c4-c4cc3ccc4O)C(O)c3ccc(c(Cl)c3)Oc3cc2cc(c3OC2OC(CO)C(O)C(O)C2OC2CC(C)(N)C(O)C(C)O2)Oc2ccc(cc2Cl)C1O (stereo not drawn)" assay_result=3.91

* * *

Test system: MRSA KS2
Experiment: MIC, broth microdilution, MRSA KS2
Type: cell-based, Staphylococcus aureus
Settings: Staphylococcus aureus MRSA KS2; read-out: MIC
measured_metric: MIC (µM)

compound=CN[C@H](CC(C)C)C(=O)N[C@H]1C(=O)N[C@@H](CC(N)=O)C(=O)N[C@H]2C(=O)N[C@H]3C(=O)N[C@H](C(=O)N[C@H](C(=O)NCCNC(=O)/C=C/c4ccc(Cl)cc4Cl)c4cc(O)cc(O)c4-c4cc3ccc4O)[C@H](O)c3ccc(c(Cl)c3)Oc3cc2cc(c3O[C@@H]2O[C@H](CO)[C@@H](O)[C@H](O)[C@H]2O[C@H]2C[C@](C)(N)[C@H](O)[C@H](C)O2)Oc2ccc(cc2Cl)[C@H]1O system_name="MRSA KS2" assay_result=0.20
compound="CNC(CC(C)C)C(=O)NC1C(=O)NC(CC(N)=O)C(=O)NC2C(=O)NC3C(=O)NC(C(=O)NC(C(=O)NCC(=O)Nc4ccc(O)cc4)c4cc(O)cc(O)c4-c4cc3ccc4O)C(O)c3ccc(c(Cl)c3)Oc3cc2cc(c3OC2OC(CO)C(O)C(O)C2OC2CC(C)(N)C(O)C(C)O2)Oc2ccc(cc2Cl)C1O (centres unmarked)" system_name="MRSA KS2" assay_result=0.78
compound="CNC(CC(C)C)C(=O)NC1C(=O)NC(CC(N)=O)C(=O)NC2C(=O)NC3C(=O)NC(C(=O)NC(C(=O)NCCCNC(=O)c4ccc(-c5ccc(F)cc5)cc4)c4cc(O)cc(O)c4-c4cc3ccc4O)C(O)c3ccc(c(Cl)c3)Oc3cc2cc(c3OC2OC(CO)C(O)C(O)C2OC2CC(C)(N)C(O)C(C)O2)Oc2ccc(cc2Cl)C1O (centres unmarked)" system_name="MRSA KS2" assay_result=0.10
compound="CNC(CC(C)C)C(=O)NC1C(=O)NC(CC(N)=O)C(=O)NC2C(=O)NC3C(=O)NC(C(=O)NC(C(=O)NCCCNC(=O)c4ccc5cc(OC)ccc5c4)c4cc(O)cc(O)c4-c4cc3ccc4O)C(O)c3ccc(c(Cl)c3)Oc3cc2cc(c3OC2OC(CO)C(O)C(O)C2OC2CC(C)(N)C(O)C(C)O2)Oc2ccc(cc2Cl)C1O (centres unmarked)" system_name="MRSA KS2" assay_result=0.39
compound=CN[C@H](CC(C)C)C(=O)N[C@H]1C(=O)N[C@@H](CC(N)=O)C(=O)N[C@H]2C(=O)N[C@H]3C(=O)N[C@H](C(=O)N[C@H](C(=O)NCC(=O)Nc4ccc(F)cc4F)c4cc(O)cc(O)c4-c4cc3ccc4O)[C@H](O)c3ccc(c(Cl)c3)Oc3cc2cc(c3O[C@@H]2O[C@H](CO)[C@@H](O)[C@H](O)[C@H]2O[C@H]2C[C@](C)(N)[C@H](O)[C@H](C)O2)Oc2ccc(cc2Cl)[C@H]1O system_name="MRSA KS2" assay_result=0.78
compound=CN[C@H](CC(C)C)C(=O)N[C@H]1C(=O)N[C@@H](CC(N)=O)C(=O)N[C@H]2C(=O)N[C@H]3C(=O)N[C@H](C(=O)N[C@H](C(=O)NCC(=O)Nc4cc(C)ccc4O)c4cc(O)cc(O)c4-c4cc3ccc4O)[C@H](O)c3ccc(c(Cl)c3)Oc3cc2cc(c3O[C@@H]2O[C@H](CO)[C@@H](O)[C@H](O)[C@H]2O[C@H]2C[C@](C)(N)[C@H](O)[C@H](C)O2)Oc2ccc(cc2Cl)[C@H]1O system_name="MRSA KS2" assay_result=0.39
compound=CN[C@H](CC(C)C)C(=O)N[C@H]1C(=O)N[C@@H](CC(N)=O)C(=O)N[C@H]2C(=O)N[C@H]3C(=O)N[C@H](C(=O)N[C@H](C(=O)NCC(=O)Nc4ccc(C)cc4C)c4cc(O)cc(O)c4-c4cc3ccc4O)[C@H](O)c3ccc(c(Cl)c3)Oc3cc2cc(c3O[C@@H]2O[C@H](CO)[C@@H](O)[C@H](O)[C@H]2O[C@H]2C[C@](C)(N)[C@H](O)[C@H](C)O2)Oc2ccc(cc2Cl)[C@H]1O system_name="MRSA KS2" assay_result=0.39
compound=C#Cc1ccc2cc(C(=O)NCCCNC(=O)[C@H]3NC(=O)[C@H]4NC(=O)[C@H](NC(=O)[C@@H]5NC(=O)[C@H](CC(N)=O)NC(=O)[C@H](NC(=O)[C@@H](CC(C)C)NC)[C@H](O)c6ccc(c(Cl)c6)Oc6cc5cc(c6O[C@@H]5O[C@H](CO)[C@@H](O)[C@H](O)[C@H]5O[C@H]5C[C@](C)(N)[C@H](O)[C@H](C)O5)Oc5ccc(cc5Cl)[C@H]4O)c4ccc(O)c(c4)-c4c(O)cc(O)cc43)ccc2c1 system_name="MRSA KS2" assay_result=0.20
compound="CNC(CC(C)C)C(=O)NC1C(=O)NC(CC(N)=O)C(=O)NC2C(=O)NC3C(=O)NC(C(=O)NC(C(=O)NCC(=O)Nc4cccc(OC)c4)c4cc(O)cc(O)c4-c4cc3ccc4O)C(O)c3ccc(c(Cl)c3)Oc3cc2cc(c3OC2OC(CO)C(O)C(O)C2OC2CC(C)(N)C(O)C(C)O2)Oc2ccc(cc2Cl)C1O (centres unmarked)" system_name="MRSA KS2" assay_result=0.39
compound="CCCCCCn1cc(-c2ccc(NC(=O)CNC(=O)C3NC(=O)C4NC(=O)C(NC(=O)C5NC(=O)C(CC(N)=O)NC(=O)C(NC(=O)C(CC(C)C)NC)C(O)c6ccc(c(Cl)c6)Oc6cc5cc(c6OC5OC(CO)C(O)C(O)C5OC5CC(C)(N)C(O)C(C)O5)Oc5ccc(cc5Cl)C4O)c4ccc(O)c(c4)-c4c(O)cc(O)cc43)cc2)nn1 (centres unmarked)" system_name="MRSA KS2" assay_result=0.20
compound="CNC(CC(C)C)C(=O)NC1C(=O)NC(CC(N)=O)C(=O)NC2C(=O)NC3C(=O)NC(C(=O)NC(C(=O)NCCCNC(=O)c4ccc(C(C)(C)C)cc4)c4cc(O)cc(O)c4-c4cc3ccc4O)C(O)c3ccc(c(Cl)c3)Oc3cc2cc(c3OC2OC(CO)C(O)C(O)C2OC2CC(C)(N)C(O)C(C)O2)Oc2ccc(cc2Cl)C1O (centres unmarked)" system_name="MRSA KS2" assay_result=0.39

Data origin: paper PMC6001238
